Tested on: HCT-116 colon
EXPERIMENT_NOTES: NCI tumour cell line growth inhibition, 48 h
// reported TGI for each item listed
METRIC: TGI

INSERT INTO results (molecule, metric, result) VALUES
  ('COc1c2occc2cc2ccc(=O)oc12', 'TGI', '> 100 µM'),
  ('CC(=O)Oc1cc(Cl)c(OC(C)=O)c2c(OC(C)=O)c(C)c(O[Si](C)(C)C(C)(C)C)cc12', 'TGI', '13.6 µM'),
  ('COc1ccc(S(=O)(=O)Nc2ccc(-c3csc(N4C(=O)/C(=C/c5cccs5)N=C4c4ccccc4)n3)cc2)cc1Cl', 'TGI', '> 100 µM'),
  ('CCOC(=O)C(=O)C(/C(=N/N(C)C)C(=O)Nc1ccc(C)cc1C)c1nc2ccccc2[nH]c1=O (centres undefined)', 'TGI', '> 100 µM'),
  ('COc1cc2c3cc1Oc1c(OC)c(OC)cc4c1C(Cc1ccc(O)c(c1)-c1cc(ccc1OC)CC3N(C)CC2)N(C)CC4 (centres undefined)', 'TGI', '> 100 µM'),
  ('O=C1CCC(N2C(=O)c3cccc(NCCOCCOCCNC(=O)c4cc5c(o4)C(=O)c4ccccc4C5=O)c3C2=O)C(=O)N1 (centres undefined)', 'TGI', '6.9 µM'),
  ('CCN(CC)CCOc1ccc(Cc2ccccc2)cc1', 'TGI', '> 100 µM'),
  ('COc1cc(/C=C2\Cc3ccccc3C2=O)cc(OC)c1OC', 'TGI', '> 100 µM'),
  ('COc1ncc(C#CC(=O)c2ccccc2)c(OC)n1', 'TGI', '10.1 µM');

###

Test system: M14 melanoma
EXPERIMENT_NOTES: NCI tumour cell line growth inhibition, 48 h; in the data active = GI50 below about 0.43 µM; inactive = the rest
Classes used: active, inactive

INSERT INTO measurements (compound, cat) VALUES
  ('O=C1c2ccccc2-c2c1c1ccc([N+](=O)[O-])cc1c(=O)n2CCCn1ccnc1', 'active'),
  ('CCCCCC(=C/c1ccccc1)/C=N/N=C(N)N', 'inactive'),
  ('COc1cc2c(cc1OC)-c1ncc3cc(OC)c(OC)cc3c1C2', 'inactive'),
  ('COc1ccccc1N1CCN(CCCOc2ccc(C(=O)/C=C3/C(=O)Nc4ccccc43)cc2)CC1', 'inactive'),
  ('COC1C(O)CC(OC2CC(OC3CC(O[C@@H]4C(=O)c5c(cc6cc(OC7CC(OC8CC(O)C(O)C(C)O8)C(O)C(C)O7)c(C)c(O)c6c5O)CC4[C@H](OC)[C@@H](O)C(C)=O)OC(C)C3O)OC(C)C2O)OC1C (some centres undefined)', 'active'),
  ('Cc1ccc(-n2c3c(c4c(CN)c(O)ccc42)CCc2ccccc2C3=O)cc1', 'inactive'),
  ('CCN(CC)c1ccc(/C=N/NC(=O)c2ccccc2Nc2ccnc(C(F)(F)F)c2)c(O)c1', 'active'),
  ('CCCCCCCCCCCCC(NC(C)=O)(C(=O)OCC)C(=O)OCC', 'inactive'),
  ('Clc1ccc(COC(Cn2ccnc2)c2ccc(Cl)cc2Cl)c(Cl)c1 (centres undefined)', 'inactive'),
  ('COc1c(N2CCN(CN3C(=O)C(=O)c4ccccc43)C(C)C2)c(F)cc2c(=O)c(C(=O)O)cn(C3CC3)c12 (centres undefined)', 'inactive'),
  ('CCN(CC)CCOc1ccc(Cc2ccccc2)cc1', 'inactive'),
  ('Cc1ccc2c(c1)-c1oc(=O)c(-c3cc4ccccc4oc3=O)cc1C(O)O2 (centres undefined)', 'inactive'),
  ('COc1ccc(-c2cc(-c3ccc(Cl)cc3)nc(SCCCCCCC(=O)NO)n2)cc1', 'inactive'),
  ('C=C1C(=O)O[C@H]2[C@H]1CC/C(Cn1cc(-c3ccsc3)nn1)=C\CC[C@@]1(C)O[C@@H]21', 'inactive');
